Measured binding signal accompanies every entry in the list below.
target: AGO2 A367P (Homo sapiens, UniProt Q9UKV8 1-859, A367P;S387D;S824A;S828D;S831D;S834A); assay: RNA Bind-n-Seq (nitrocellulose filter binding and sequencing); miR-122 guide loaded in AGO2; 60 min incubation; 30 mM Tris pH 8.0, 100 mM potassium acetate, 2 mM magnesium acetate, 0.5 mM TCEP, 0.005% NP-40, 0.01 mg/ml yeast tRNA; 3 nM AGO2-miR-122, 100 nM RNA library; 60; high values mean tight binding; conditions: protein: recombinant; tags: His6 (N-terminal, pFastBac HTA)
Sequence (Q9UKV8 whole entry A367P/S387D/S824A/S828D/S831D/S834A): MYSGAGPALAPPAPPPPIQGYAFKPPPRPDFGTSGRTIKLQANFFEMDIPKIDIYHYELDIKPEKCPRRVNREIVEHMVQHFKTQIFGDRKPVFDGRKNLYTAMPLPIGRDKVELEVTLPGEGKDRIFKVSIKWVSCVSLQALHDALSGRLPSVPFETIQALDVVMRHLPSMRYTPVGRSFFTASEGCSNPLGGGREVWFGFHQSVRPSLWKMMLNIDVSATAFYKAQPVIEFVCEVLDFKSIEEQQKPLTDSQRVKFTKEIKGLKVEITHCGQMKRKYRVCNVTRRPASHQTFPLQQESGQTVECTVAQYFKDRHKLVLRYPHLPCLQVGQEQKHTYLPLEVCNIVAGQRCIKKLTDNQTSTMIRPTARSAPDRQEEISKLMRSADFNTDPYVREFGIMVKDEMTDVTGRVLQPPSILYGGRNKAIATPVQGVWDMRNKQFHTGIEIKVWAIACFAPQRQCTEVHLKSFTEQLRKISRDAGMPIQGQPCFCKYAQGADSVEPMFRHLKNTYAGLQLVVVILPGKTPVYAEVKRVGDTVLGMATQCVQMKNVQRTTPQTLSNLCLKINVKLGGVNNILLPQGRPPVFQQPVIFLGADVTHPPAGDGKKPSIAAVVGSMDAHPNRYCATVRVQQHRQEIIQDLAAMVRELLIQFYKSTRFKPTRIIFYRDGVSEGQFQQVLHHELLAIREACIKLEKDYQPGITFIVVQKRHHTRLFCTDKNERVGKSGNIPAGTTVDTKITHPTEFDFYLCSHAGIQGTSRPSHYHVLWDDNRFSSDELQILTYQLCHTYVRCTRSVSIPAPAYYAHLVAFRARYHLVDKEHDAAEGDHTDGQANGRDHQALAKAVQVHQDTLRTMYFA

Illustrative cases are given below, each with its answer.
>>> datavalue("GCACCTTG (ssRNA, constant regions annealed to DNA blockers; guide miR-122 5' phosphate) RNA 1: GAGUUCUACAGUCCGACGAUCCCAACGCACCUUGCACCUGGAAUUCUCGGGUGCCAA RNA 2: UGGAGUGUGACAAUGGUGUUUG DNA 1: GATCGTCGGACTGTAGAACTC DNA 2: TTGGCACCCGAGAATTCCA")
"0.154 fold enrichment over input"
>>> datavalue("GCACCCCA (ssRNA, constant regions annealed to DNA blockers; guide miR-122 5' phosphate) RNA 1: GAGUUCUACAGUCCGACGAUCCCAACGCACCCCACACCUGGAAUUCUCGGGUGCCAA RNA 2: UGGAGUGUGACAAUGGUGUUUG DNA 1: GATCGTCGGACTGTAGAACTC DNA 2: TTGGCACCCGAGAATTCCA")
"0.263 fold enrichment over input"
>>> datavalue("GCGTCTTA (ssRNA, constant regions annealed to DNA blockers; guide miR-122 5' phosphate) RNA 1: GAGUUCUACAGUCCGACGAUCCCAACGCGUCUUACACCUGGAAUUCUCGGGUGCCAA RNA 2: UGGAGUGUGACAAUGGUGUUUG DNA 1: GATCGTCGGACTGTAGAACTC DNA 2: TTGGCACCCGAGAATTCCA")
"0.2 fold enrichment over input"
>>> datavalue("ATACTTCA (ssRNA, constant regions annealed to DNA blockers; guide miR-122 5' phosphate) RNA 1: GAGUUCUACAGUCCGACGAUCCCAACAUACUUCACACCUGGAAUUCUCGGGUGCCAA RNA 2: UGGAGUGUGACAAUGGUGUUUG DNA 1: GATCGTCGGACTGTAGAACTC DNA 2: TTGGCACCCGAGAATTCCA")
"0.396 fold enrichment over input"
>>> datavalue("GCACTTTG (ssRNA, constant regions annealed to DNA blockers; guide miR-122 5' phosphate) RNA 1: GAGUUCUACAGUCCGACGAUCCCAACGCACUUUGCACCUGGAAUUCUCGGGUGCCAA RNA 2: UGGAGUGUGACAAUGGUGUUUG DNA 1: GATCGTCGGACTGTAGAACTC DNA 2: TTGGCACCCGAGAATTCCA")
"0.126 fold enrichment over input"
>>> datavalue("GCACTTTA (ssRNA, constant regions annealed to DNA blockers; guide miR-122 5' phosphate) RNA 1: GAGUUCUACAGUCCGACGAUCCCAACGCACUUUACACCUGGAAUUCUCGGGUGCCAA RNA 2: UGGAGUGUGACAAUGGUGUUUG DNA 1: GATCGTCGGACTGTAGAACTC DNA 2: TTGGCACCCGAGAATTCCA")
"0.209 fold enrichment over input"
>>> datavalue("ATGTTTCA (ssRNA, constant regions annealed to DNA blockers; guide miR-122 5' phosphate) RNA 1: GAGUUCUACAGUCCGACGAUCCCAACAUGUUUCACACCUGGAAUUCUCGGGUGCCAA RNA 2: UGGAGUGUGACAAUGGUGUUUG DNA 1: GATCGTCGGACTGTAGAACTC DNA 2: TTGGCACCCGAGAATTCCA")
"0.311 fold enrichment over input"
>>> datavalue("GCGTCTTG (ssRNA, constant regions annealed to DNA blockers; guide miR-122 5' phosphate) RNA 1: GAGUUCUACAGUCCGACGAUCCCAACGCGUCUUGCACCUGGAAUUCUCGGGUGCCAA RNA 2: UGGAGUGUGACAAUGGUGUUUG DNA 1: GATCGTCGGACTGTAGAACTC DNA 2: TTGGCACCCGAGAATTCCA")
"0.141 fold enrichment over input"

What does the record list as binding signal for GTACCTTA (ssRNA, constant regions annealed to DNA blockers; guide miR-122 5' phosphate) RNA 1: GAGUUCUACAGUCCGACGAUCCCAACGUACCUUACACCUGGAAUUCUCGGGUGCCAA RNA 2: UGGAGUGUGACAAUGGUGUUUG DNA 1: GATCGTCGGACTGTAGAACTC DNA 2: TTGGCACCCGAGAATTCCA ?
0.167 fold enrichment over input

Fill in the blank: the reported binding signal of ATATTCCA (ssRNA, constant regions annealed to DNA blockers; guide miR-122 5' phosphate) RNA 1: GAGUUCUACAGUCCGACGAUCCCAACAUAUUCCACACCUGGAAUUCUCGGGUGCCAA RNA 2: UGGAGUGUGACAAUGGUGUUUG DNA 1: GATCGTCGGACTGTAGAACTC DNA 2: TTGGCACCCGAGAATTCCA is ____.
0.22 fold enrichment over input

What does the record list as binding signal for ATGTCCCA (ssRNA, constant regions annealed to DNA blockers; guide miR-122 5' phosphate) RNA 1: GAGUUCUACAGUCCGACGAUCCCAACAUGUCCCACACCUGGAAUUCUCGGGUGCCAA RNA 2: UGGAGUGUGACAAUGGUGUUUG DNA 1: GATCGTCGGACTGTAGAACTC DNA 2: TTGGCACCCGAGAATTCCA ?
0.303 fold enrichment over input

// binding signal lookup, key: GCGCTCCG (ssRNA, constant regions annealed to DNA blockers; guide miR-122 5' phosphate) RNA 1: GAGUUCUACAGUCCGACGAUCCCAACGCGCUCCGCACCUGGAAUUCUCGGGUGCCAA RNA 2: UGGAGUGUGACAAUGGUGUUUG DNA 1: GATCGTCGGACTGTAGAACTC DNA 2: TTGGCACCCGAGAATTCCA
4.35 fold enrichment over input
